Target: 5-hydroxytryptamine receptor 2C (Rattus norvegicus, UniProt P08909)
Sequence (P08909 whole entry): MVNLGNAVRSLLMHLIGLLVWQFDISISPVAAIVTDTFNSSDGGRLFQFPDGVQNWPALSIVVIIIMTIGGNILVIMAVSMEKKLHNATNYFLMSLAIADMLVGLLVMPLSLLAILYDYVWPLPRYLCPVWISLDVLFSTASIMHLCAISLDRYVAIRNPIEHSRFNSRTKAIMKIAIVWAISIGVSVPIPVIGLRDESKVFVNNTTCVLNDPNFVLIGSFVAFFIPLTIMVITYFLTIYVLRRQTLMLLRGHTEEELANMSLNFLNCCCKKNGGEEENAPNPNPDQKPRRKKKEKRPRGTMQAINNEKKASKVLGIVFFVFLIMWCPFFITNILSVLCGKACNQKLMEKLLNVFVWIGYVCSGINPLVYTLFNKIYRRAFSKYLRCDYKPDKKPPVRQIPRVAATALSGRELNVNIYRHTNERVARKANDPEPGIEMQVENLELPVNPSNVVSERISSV
Assay: Affinity against 5-hydroxytryptamine 2C receptor in J1 cells transfected with the rat 5-HT2C gene labeled with [3H]mesulergine.
Records here are stratified by Ki; strata: bucket 1 (below 400 nM), bucket 2 (400 nM to below 800 nM), bucket 3 (800 nM or more)

{"Smi": "COc1ccc2[nH]cc(CCNCc3ccc(Cl)cc3)c2c1", "Measured target": "5-hydroxytryptamine receptor 2C (Rattus norvegicus, UniProt P08909)", "Class assignment": "bucket 3"}
{"Smi": "COc1cc(CCN(C)C)c(OC)cc1Br", "Measured target": "5-hydroxytryptamine receptor 2C (Rattus norvegicus, UniProt P08909)", "Class assignment": "bucket 2"}
{"Smi": "COc1cc(CCNCc2ccc(Br)cc2)c(OC)cc1Br", "Measured target": "5-hydroxytryptamine receptor 2C (Rattus norvegicus, UniProt P08909)", "Class assignment": "bucket 1"}
{"Smi": "COc1ccc2[nH]cc(CCNCc3ccc(F)cc3)c2c1", "Measured target": "5-hydroxytryptamine receptor 2C (Rattus norvegicus, UniProt P08909)", "Class assignment": "bucket 3"}
{"Smi": "COc1cc(CCNCc2ccc(I)cc2)c(OC)cc1Br", "Measured target": "5-hydroxytryptamine receptor 2C (Rattus norvegicus, UniProt P08909)", "Class assignment": "bucket 1"}
{"Smi": "COc1cc(CCNCCCCc2ccccc2)c(OC)cc1Br", "Measured target": "5-hydroxytryptamine receptor 2C (Rattus norvegicus, UniProt P08909)", "Class assignment": "bucket 2"}
{"Smi": "CNCCc1c[nH]c2ccc(OC)cc12", "Measured target": "5-hydroxytryptamine receptor 2C (Rattus norvegicus, UniProt P08909)", "Class assignment": "bucket 3"}
{"Smi": "COc1ccc(CNCCc2c[nH]c3ccc(OC)cc23)cc1", "Measured target": "5-hydroxytryptamine receptor 2C (Rattus norvegicus, UniProt P08909)", "Class assignment": "bucket 3"}
{"Smi": "COc1cc(CCNCc2ccc(F)cc2)c(OC)cc1Br", "Measured target": "5-hydroxytryptamine receptor 2C (Rattus norvegicus, UniProt P08909)", "Class assignment": "bucket 1"}
{"Smi": "COc1ccc2[nH]cc(CCNCCCc3ccccc3)c2c1", "Measured target": "5-hydroxytryptamine receptor 2C (Rattus norvegicus, UniProt P08909)", "Class assignment": "bucket 1"}

---

Biological target: 5-hydroxytryptamine receptor 2A (Homo sapiens)
Sequence (P28223 whole entry): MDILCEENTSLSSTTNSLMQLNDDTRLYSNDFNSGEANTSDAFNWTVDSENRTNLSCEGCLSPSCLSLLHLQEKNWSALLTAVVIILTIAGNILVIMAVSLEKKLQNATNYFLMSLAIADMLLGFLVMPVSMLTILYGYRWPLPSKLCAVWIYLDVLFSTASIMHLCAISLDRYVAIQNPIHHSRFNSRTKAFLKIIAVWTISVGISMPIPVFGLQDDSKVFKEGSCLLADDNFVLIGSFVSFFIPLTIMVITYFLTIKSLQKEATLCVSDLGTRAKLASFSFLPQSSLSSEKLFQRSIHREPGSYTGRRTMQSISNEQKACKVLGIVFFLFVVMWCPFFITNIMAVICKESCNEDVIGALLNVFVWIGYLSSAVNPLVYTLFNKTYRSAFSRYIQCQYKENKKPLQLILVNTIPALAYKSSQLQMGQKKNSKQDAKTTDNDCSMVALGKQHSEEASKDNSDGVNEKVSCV
Test: Affinity against 5-hydroxytryptamine 2A receptor (K) labeled with [3H]ketanserin.
pKi: −log10 of the molar value.
Quick list: pKi per entry.

{"Smi": "COc1cc(CCNCc2ccccc2)c(OC)cc1Br", "Measured target": "5-hydroxytryptamine receptor 2A (Homo sapiens)", "pKi": 7.80}
{"Smi": "COc1cc(CCNCc2ccc(I)cc2)c(OC)cc1Br", "Measured target": "5-hydroxytryptamine receptor 2A (Homo sapiens)", "pKi": 7.66}
{"Smi": "COc1cc(CCNCc2ccc(Br)cc2)c(OC)cc1Br", "Measured target": "5-hydroxytryptamine receptor 2A (Homo sapiens)", "pKi": 8.80}
{"Smi": "COc1ccc2[nH]cc(CCN3CCCCC3)c2c1", "Measured target": "5-hydroxytryptamine receptor 2A (Homo sapiens)", "pKi": 6.80}
{"Smi": "COc1ccc(CNCCc2c[nH]c3ccc(OC)cc23)cc1", "Measured target": "5-hydroxytryptamine receptor 2A (Homo sapiens)", "pKi": 7.00}
{"Smi": "COc1cc(CCNCc2ccc(F)cc2)c(OC)cc1Br", "Measured target": "5-hydroxytryptamine receptor 2A (Homo sapiens)", "pKi": 7.52}
{"Smi": "COc1ccc2[nH]cc(CCNCc3ccccc3)c2c1", "Measured target": "5-hydroxytryptamine receptor 2A (Homo sapiens)", "pKi": 7.26}
{"Smi": "CNCCc1cc(OC)c(Br)cc1OC", "Measured target": "5-hydroxytryptamine receptor 2A (Homo sapiens)", "pKi": 6.42}
{"Smi": "COc1cc(CCNCCCc2ccccc2)c(OC)cc1Br", "Measured target": "5-hydroxytryptamine receptor 2A (Homo sapiens)", "pKi": 7.08}
{"Smi": "COc1cc(CCNCc2ccc(C)cc2)c(OC)cc1Br", "Measured target": "5-hydroxytryptamine receptor 2A (Homo sapiens)", "pKi": 7.64}
{"Smi": "COc1ccc(CNCCc2cc(OC)c(Br)cc2OC)cc1", "Measured target": "5-hydroxytryptamine receptor 2A (Homo sapiens)", "pKi": 7.80}
{"Smi": "CCNCCc1c[nH]c2ccc(OC)cc12", "Measured target": "5-hydroxytryptamine receptor 2A (Homo sapiens)", "pKi": 6.03}
{"Smi": "CCNCCc1cc(OC)c(Br)cc1OC", "Measured target": "5-hydroxytryptamine receptor 2A (Homo sapiens)", "pKi": 6.48}
{"Smi": "COc1ccc2[nH]cc(CCNCc3ccc(F)cc3)c2c1", "Measured target": "5-hydroxytryptamine receptor 2A (Homo sapiens)", "pKi": 6.32}
{"Smi": "COc1ccc2[nH]cc(CCNCc3ccc([N+](=O)[O-])cc3)c2c1", "Measured target": "5-hydroxytryptamine receptor 2A (Homo sapiens)", "pKi": 5.37}
{"Smi": "COc1ccc2[nH]cc(CCNCc3ccc(I)cc3)c2c1", "Measured target": "5-hydroxytryptamine receptor 2A (Homo sapiens)", "pKi": 6.40}
{"Smi": "COc1ccc2[nH]cc(CCNCc3ccc(C)cc3)c2c1", "Measured target": "5-hydroxytryptamine receptor 2A (Homo sapiens)", "pKi": 6.96}
{"Smi": "COc1cc(CCNCCCCc2ccccc2)c(OC)cc1Br", "Measured target": "5-hydroxytryptamine receptor 2A (Homo sapiens)", "pKi": 7.00}
{"Smi": "COc1ccc2[nH]cc(CCNCc3ccc(Cl)cc3)c2c1", "Measured target": "5-hydroxytryptamine receptor 2A (Homo sapiens)", "pKi": 6.25}
{"Smi": "COc1ccc2[nH]cc(CCNCc3ccc(Br)cc3)c2c1", "Measured target": "5-hydroxytryptamine receptor 2A (Homo sapiens)", "pKi": 8.28}
{"Smi": "CNCCc1c[nH]c2ccc(OC)cc12", "Measured target": "5-hydroxytryptamine receptor 2A (Homo sapiens)", "pKi": 6.35}
{"Smi": "COc1ccc2[nH]cc(CCNCCCCc3ccccc3)c2c1", "Measured target": "5-hydroxytryptamine receptor 2A (Homo sapiens)", "pKi": 7.66}
{"Smi": "COc1cc(CCN2CCCCC2)c(OC)cc1Br", "Measured target": "5-hydroxytryptamine receptor 2A (Homo sapiens)", "pKi": 6.05}

---

Target: UniProt:P08909
Test: Affinity against 5-hydroxytryptamine 2C receptor in J1 cells transfected with the rat 5-HT2C gene labeled with [3H]mesulergine.
pKi: −log10 of the molar value.

{"Smi": "COc1ccc2[nH]cc(CCNCc3ccc(I)cc3)c2c1", "Measured target": "UniProt:P08909", "pKi": 5.75}
{"Smi": "COc1cc(CCNCc2ccccc2)c(OC)cc1Br", "Measured target": "UniProt:P08909", "pKi": 7.05}
{"Smi": "COc1ccc2[nH]cc(CCNCc3ccc([N+](=O)[O-])cc3)c2c1", "Measured target": "UniProt:P08909", "pKi": 5.00}
{"Smi": "CCNCCc1c[nH]c2ccc(OC)cc12", "Measured target": "UniProt:P08909", "pKi": 5.57}
{"Smi": "CNCCc1cc(OC)c(Br)cc1OC", "Measured target": "UniProt:P08909", "pKi": 7.00}
{"Smi": "COc1ccc(CNCCc2cc(OC)c(Br)cc2OC)cc1", "Measured target": "UniProt:P08909", "pKi": 6.67}
{"Smi": "COc1cc(CCNCc2ccc(N)cc2)c(OC)cc1Br", "Measured target": "UniProt:P08909", "pKi": 5.99}
{"Smi": "COc1cc(CCNCc2ccc(C)cc2)c(OC)cc1Br", "Measured target": "UniProt:P08909", "pKi": 6.65}
{"Smi": "COc1cc(CCN2CCCCC2)c(OC)cc1Br", "Measured target": "UniProt:P08909", "pKi": 5.60}
{"Smi": "COc1cc(CCNCCCc2ccccc2)c(OC)cc1Br", "Measured target": "UniProt:P08909", "pKi": 6.51}
{"Smi": "COc1ccc2[nH]cc(CCNCc3ccc(C)cc3)c2c1", "Measured target": "UniProt:P08909", "pKi": 5.91}
{"Smi": "COc1cc(CCNCc2ccc(Cl)cc2)c(OC)cc1Br", "Measured target": "UniProt:P08909", "pKi": 6.15}
{"Smi": "CCNCCc1cc(OC)c(Br)cc1OC", "Measured target": "UniProt:P08909", "pKi": 5.71}

---

Experiment: The compound evaluated for its receptor selectivity 5-HT2C receptors versus [125I]- DOI- labeled receptors
Simple rule here: Ratio less than 40 is 1 (yes), otherwise 0 (no).

{"Smi": "COc1cc(CCN(C)C)c(OC)cc1Br", "Class assignment": "1 (yes)"}
{"Smi": "COc1ccc2[nH]cc(CCNCc3ccc(Cl)cc3)c2c1", "Class assignment": "0 (no)"}
{"Smi": "CNCCc1cc(OC)c(Br)cc1OC", "Class assignment": "1 (yes)"}
{"Smi": "COc1ccc(CNCCc2c[nH]c3ccc(OC)cc23)cc1", "Class assignment": "0 (no)"}
{"Smi": "COc1ccc2[nH]cc(CCNCc3ccc(I)cc3)c2c1", "Class assignment": "1 (yes)"}
{"Smi": "COc1cc(CCN2CCCCC2)c(OC)cc1Br", "Class assignment": "1 (yes)"}
{"Smi": "COc1ccc2[nH]cc(CCNCCCCc3ccccc3)c2c1", "Class assignment": "0 (no)"}

Reference for the values: ChEMBL document CHEMBL1127846
